experimental-target: Beta-secretase 1 (Homo sapiens, UniProt P56817)
Sequence (P56817 whole entry): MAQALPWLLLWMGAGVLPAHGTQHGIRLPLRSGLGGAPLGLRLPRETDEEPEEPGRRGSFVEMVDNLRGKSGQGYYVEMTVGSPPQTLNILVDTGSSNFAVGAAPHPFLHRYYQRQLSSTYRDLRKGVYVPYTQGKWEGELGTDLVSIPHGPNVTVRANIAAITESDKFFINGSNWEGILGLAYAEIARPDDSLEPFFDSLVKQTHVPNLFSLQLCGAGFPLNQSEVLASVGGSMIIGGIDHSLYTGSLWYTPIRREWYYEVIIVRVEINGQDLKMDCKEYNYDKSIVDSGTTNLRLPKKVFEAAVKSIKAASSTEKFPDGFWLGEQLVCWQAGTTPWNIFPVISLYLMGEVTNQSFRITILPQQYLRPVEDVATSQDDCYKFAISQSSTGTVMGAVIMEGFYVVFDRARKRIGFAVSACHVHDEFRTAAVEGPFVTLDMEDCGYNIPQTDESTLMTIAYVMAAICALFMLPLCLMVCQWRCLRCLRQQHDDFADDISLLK
test-summary: Inhibition of recombinant BACE1 (unknown origin)
assay-endpoint: pKi
Numbers only, as −log10 of the molar value.

Reference set (2 entries):
In [3]: df
Out[3]:
                           molecular_string  numeric_value
0  CSC[C@H](NC(=O)[C@@H](C)Cn1nc(C)cc1C)C(=O)N[C@@H](CC(C)C)[C@@H](O)C[C@@H](C)C(=O)N[C@H](C(=O)NCC(C)C)C(C)C           7.19
1  CC[C@@H](Cc1csc(C)n1)C(=O)N[C@@H](CNC(=O)OC(C)(C)C)C(=O)N[C@@H](CC(C)C)[C@@H](O)C[C@@H](C)C(=O)N[C@H](C(=O)NCC(C)C)C(C)C           7.77

Consider now this further compound.
INPUT: Specify pKi for `Cc1csc(C[C@H](C)C(=O)N[C@@H](CNC(=O)OC(C)(C)C)C(=O)N[C@@H](CC(C)C)[C@@H](O)C[C@@H](C)C(=O)N[C@H](C(=O)NCC(C)C)C(C)C)n1` , system Beta-secretase 1 (Homo sapiens, UniProt P56817).
OUTPUT: 9.60
